Values were extracted from the supplement of paper PMC9170038.

# Test system: MS2 coat protein
# measurementNotes: apparent KD of MS2 coat protein; designed switch direction (-1 OFF switch, 1 ON switch): 1; higher = weaker reporter binding
# measurementParameters: Eterna round: R95; input ligand: microRNA oligo, concentration not stated
Overview of recorded apparent KD of MS2 coat protein for various sequences
Give the value in nM but do not write nM after it.

Worked examples follow.
>  <sequenceInput>
AGCAAAAUAAGCAAGGAUAUGUAAUUUGGCACAUGAGGAUCACCCAUGUCAAUCCAUUUUUUUGAACAGAAGGUGCAUUUUUUUU [ak first solve] (puzzle: Same State 2)

>  <apparent KD of MS2 coat protein [nM]>
36.4

$$$$
>  <sequenceInput>
AAAAGACAUGAGGAUCACCCAUGUAACGGUCGUCAAGGAUAUGCAUAGGUCCAUUGACCAGCAGAAGGUGAUACCU [Xeanlarace] (puzzle: Same State 1)

>  <apparent KD of MS2 coat protein [nM]>
56.6

$$$$

Then this sequence:
Incoming: Name the recorded apparent KD of MS2 coat protein for AGUCCAGCGAAAGCUGGACAAAAGCAUGUACAUGAGGAUCACCCAUGUUCAUGUGCAAGCUUUUUGCUCGUCUUAAA [JL mod - D95 - 4] (puzzle: Sensor for hsa-mir-208a) .
Outgoing: 9.36

====

# Test system: K4 kissing-loop RNA reporter;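 note: bound reporter read as fluorescence of individual clusters on recovered sequencing chips by microscopy, with normalized cluster intensities fitted with a binding model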
# measurementNotes: apparent KD of K4 kissing-loop reporter; higher = weaker reporter binding
# measurementParameters: Eterna round: R107; input ligand: tryptophan 2.4 mM
readoutName: apparent KD of K4 kissing-loop reporter (µM)
Provide only the numeric value, understood in µM.

These recorded examples may help you get a feel for the data.
>  <sequenceInput>
UGACUACAAAAGGAAUAAUCCUAGUGAUGUUAGGAUAUGCUGAUAAGCAGAAGGAACUGAGAUCGAAAGAUCUCAAAUGUAGUCU [FmnAX 25 Mat Inspired #SwitchBubble #StaticStem #K4Early]

>  <unitString>
µM

>  <apparent KD of K4 kissing-loop reporter>
0.093

$$$$
>  <sequenceInput>
GGUGUGCCAAGUGAUGUUUGGCGUUCUCACCGAGGACCGGUACGGCCGCCACUCGUUAACUGACCAAGUAUCUUUACCUCGGAGA [theeternabot_sameState_KL_Trp_A_8]

>  <unitString>
µM

>  <apparent KD of K4 kissing-loop reporter>
0.156

$$$$
>  <sequenceInput>
GGUCGAGUGAUGUUCGAUGUUAUGCAUUCAGAGGAUAUAGGAUUAGCUAGAAGGCUGAAUCAAUCUUCGAGUGAUGUUCGAGGAU [Same State FMN A GF 9]

>  <unitString>
µM

>  <apparent KD of K4 kissing-loop reporter>
0.112

$$$$

Incoming: Which apparent KD of K4 kissing-loop reporter is reported for this sequence? GGACAACUAUGUCCCAUACAAACAAGAGAUACCAGCCAUCAUAGAGGCCCUUGGCAGCUCAUAUAAUCCAGUGAUGUUGGAUUUC [Atgebeus]
Outgoing: 0.148

Incoming: Requested field: apparent KD of K4 kissing-loop reporter. Item: AAACAUUGGUCUGAUACCAGUUAGACCGAUAGGUCAAAACUGGAGUGAUGUUCCUAAAAUAACCCUUGGCAGCAGACCGAUGAAA [MAT - Same State Theophlline B - Mod of Eli - D4]
Outgoing: 0.552

Incoming: What does the data say about its apparent KD of K4 kissing-loop reporter? Entry: `UUUUUUAGUUGAGUUAUACAUAGCGGACUAUAGGAUAUCUAGAAAUAGAGAAGGAUAAGAGUGAUGUUCUUAUUCAACUAUAGUG`
Outgoing: 0.0916

Incoming: Which apparent KD of K4 kissing-loop reporter value is on record for AAAAUAAACUAGUGAUGUUGGUGUCCAGAUACCAGCGACGAAAGUCGCCCUUGGCAGCUGUGGACGUACAAAAUAAGUACGUCCU [MatMod 21 - Jieux - Same State - Theophylline A] ?
Outgoing: 0.289

Incoming: For the sequence shown here, UCGGACCCUGGAGGAUAUGAGUCGAGUGAUGUUCGGCGGUCCAUGCCGAUGCGGCGUUAUGCCCUUUUAGAAGGCCAGGGUCCGA [#2 Exclusion - FMN B Attempt #10 (HarryS)] , give the reported apparent KD of K4 kissing-loop reporter.
Outgoing: 0.264
